normalized growth overview
Test: chemical genetic growth profiling, strain panel (AID 1159580);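 also: tested at 20 µM; growth read once vehicle control cultures reached saturation at 30 °C; 1 = growth at the plate median or of vehicle wells; lower values mean less growth of the strain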
Conditions: S. cerevisiae deletion strains, growth OD, locus YDR226W, strain ADK1, active compounds read low
The campaign covered roughly 5,500 compounds. About 2,000 (36%) were called active. Not shown: some 18% with an inconclusive outcome. Some of the results follow.
VALUE_TYPE: normalized growth

In [3]: df
Out[3]:
                                    compound         value_type  recorded_measurement
 0  CC1SC(c2cccnc2)N(c2ccc(Cl)cc2)C1=O (centres undefined)  normalized growth                 0.932
 1  CC(C)Sc1c(Cl)cccc1NC(=O)Nc1cccc(C(F)(F)F)c1  normalized growth                 0.965
 2          O=[N+]([O-])c1ccc(Sc2ccccc2)cc1O  normalized growth                 0.958
 3       O=C(NCc1ccc2c(c1)OCO2)c1cc2ccccc2s1  normalized growth                 0.874
 4  Cc1csc2ncnc(N3CCN(C(=S)Nc4ccc(C(F)(F)F)cc4)CC3)c12  normalized growth                 0.994
 5  O=C(OCCNc1ccc([N+](=O)[O-])cn1)c1ccc([N+](=O)[O-])o1  normalized growth                 0.887
 6  O=C(Nc1ccccc1Sc1ccc(C(F)(F)F)cc1[N+](=O)[O-])C(Cl)Cl  normalized growth                 0.993
 7  O=[N+]([O-])c1ccc(Sc2ccccc2)c([N+](=O)[O-])c1  normalized growth                 0.858
 8           S=C(NCc1cccs1)Nc1cc(Cl)cc(Cl)c1  normalized growth                 0.955
 9   FC(F)(F)c1ccncc1-c1nc(-c2ccc(Cl)cc2)cs1  normalized growth                 0.979
10       O=C(/C=C/c1ccc(Cl)cc1)Nc1cccc(Cl)c1  normalized growth                  0.95
11  O=[N+]([O-])c1ccc(NCc2ccc(Cl)c(Cl)c2)nc1  normalized growth                 0.937
12  O=[N+]([O-])c1cc(C(F)(F)F)ccc1Sc1n[nH]c(-c2cc(Cl)cc(Cl)c2)n1  normalized growth                 0.943
13    CCOC(=O)c1ccc(N=Cc2cc(Cl)cc(Cl)c2O)cc1  normalized growth                 0.969
14  C=CCC1C(=O)N(S(=O)(=O)c2ccc(Cl)cc2)N=C1CCC (centres undefined)  normalized growth                 0.996
15        S=C(NCCc1csc2ccccc12)Nc1ccc(Cl)cc1  normalized growth                 0.951
16  O=S(=O)(Nc1cc(C(F)(F)F)cc(C(F)(F)F)c1)c1ccc(Cl)s1  normalized growth                 0.914
17        Cn1ncc(-c2nc(-c3ccc(Cl)cc3)cs2)c1N  normalized growth                 0.925
18  CC1SC(c2cccnc2)N(c2ccc(F)cc2F)C1=O (centres undefined)  normalized growth                 0.974
19    O=S(=O)(Nc1c(F)cccc1F)c1ccc(Cl)c(Cl)c1  normalized growth                 0.943
20  Cc1cc(Sc2c([N+](=O)[O-])cc(C(F)(F)F)cc2[N+](=O)[O-])c(Cl)cc1Cl  normalized growth                 0.978
21       Cc1cc2nc3c(Cl)c(O)c4ccccc4c3nc2cc1C  normalized growth                 0.949
22         CC(C)Sc1c(Cl)cccc1NC(=O)Nc1ccccc1  normalized growth                 0.976
23       O=C(Nc1cc(Cl)cc(Cl)c1)c1cc(Br)ccc1O  normalized growth                 0.935
24  Cc1csc2c(N3CCN(C(=S)Nc4ccc(C(F)(F)F)cc4)CC3)ncnc12  normalized growth                 0.997
25  NNC(=O)c1oc2nc(-c3ccccc3)cc(-c3ccccc3)c2c1N  normalized growth                 0.985
26  Cc1cc(C)c2cc(C(=O)NCCNc3ccc(C(F)(F)F)cn3)[nH]c2c1  normalized growth                 0.983
27  COc1ccc(Oc2ccc([N+](=O)[O-])cc2C(=O)O/N=C(/N)c2ccc(C(F)(F)F)cc2)cc1  normalized growth                 0.987
28                  COC(=S)Nc1cc(Cl)cc(Cl)c1  normalized growth                 0.921
29  COc1cc(C2CC(=S)Nc3ccccc3S2)cc(OC)c1OC (centres undefined)  normalized growth                  0.99
30  CCOC(=O)C(O)(c1ccc(NC(=O)c2ccc(Cl)c(Cl)c2)cc1)C(F)(F)F (centres undefined)  normalized growth                 0.992
31  COc1cc(C2SCCS2)cc(Br)c1OC(=O)NC(=O)c1c(Cl)cccc1Cl  normalized growth                 0.937
32       N/C(=N/OCc1c(F)cccc1Cl)c1ccc(Cl)cc1  normalized growth                 0.905
33              CC(C)OC(=O)Nc1cc(Cl)cc(Cl)c1  normalized growth                 0.982
